Target: catalytic JH1 domain of JAK2 (Homo sapiens, UniProt O60674)
Construct: the catalytic JH1 domains of JAK1 and JAK2; purchased Ambit Biosciences (scanMAXX KINOMEscan)
Sequence (O60674 849-1124 limits assumed): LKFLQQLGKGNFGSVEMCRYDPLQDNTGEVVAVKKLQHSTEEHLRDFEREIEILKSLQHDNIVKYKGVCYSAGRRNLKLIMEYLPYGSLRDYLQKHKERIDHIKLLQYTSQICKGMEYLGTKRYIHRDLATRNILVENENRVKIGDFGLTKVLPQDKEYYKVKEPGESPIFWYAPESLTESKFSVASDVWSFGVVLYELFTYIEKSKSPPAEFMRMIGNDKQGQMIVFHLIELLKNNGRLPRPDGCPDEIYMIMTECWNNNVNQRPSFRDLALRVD
Assay: KINOMEscan, JAK2 JH1 domain
Format: binding
Conditions: kinase JAK2(JH1domain-catalytic); 1 µM; read-out: % of control at 1 µM
assayMetric: remaining binding at 1 µM (%)
Response body: numeric value in %, unit text excluded.

Query: Using the record for CS(=O)(=O)N1CCN(Cc2cc3nc(-c4cccc5[nH]ncc45)nc(N4CCOCC4)c3s2)CC1 , report its remaining binding at 1 µM.
Result: 100

Query: Using the record for COc1ncc(-c2ccc3nccc(-c4ccnnc4)c3c2)cc1NS(=O)(=O)c1ccc(F)cc1F , report its remaining binding at 1 µM.
Result: 90

Query: Using the record for Cn1c(=O)n(-c2ccc(C(C)(C)C#N)cc2)c2c3cc(-c4cnc5ccccc5c4)ccc3ncc21 , report its remaining binding at 1 µM.
Result: 8.2

Query: Using the record for Nc1cc(C(F)(F)F)c(-c2cc(N3CCOCC3)nc(N3CCOCC3)n2)cn1 , report its remaining binding at 1 µM.
Result: 63

Query: Using the record for FC(F)c1nc2ccccc2n1-c1nc(N2CCOCC2)nc(N2CCOCC2)n1 , report its remaining binding at 1 µM.
Result: 100

* * *

Field: remaining activity at 1 µM. Provide a value for each of the compounds that follow.
Target: panel of 442 kinases (Homo sapiens)
Construct: purchased Ambit Biosciences (scanMAXX KINOMEscan)
Sequence (P42681 1-527): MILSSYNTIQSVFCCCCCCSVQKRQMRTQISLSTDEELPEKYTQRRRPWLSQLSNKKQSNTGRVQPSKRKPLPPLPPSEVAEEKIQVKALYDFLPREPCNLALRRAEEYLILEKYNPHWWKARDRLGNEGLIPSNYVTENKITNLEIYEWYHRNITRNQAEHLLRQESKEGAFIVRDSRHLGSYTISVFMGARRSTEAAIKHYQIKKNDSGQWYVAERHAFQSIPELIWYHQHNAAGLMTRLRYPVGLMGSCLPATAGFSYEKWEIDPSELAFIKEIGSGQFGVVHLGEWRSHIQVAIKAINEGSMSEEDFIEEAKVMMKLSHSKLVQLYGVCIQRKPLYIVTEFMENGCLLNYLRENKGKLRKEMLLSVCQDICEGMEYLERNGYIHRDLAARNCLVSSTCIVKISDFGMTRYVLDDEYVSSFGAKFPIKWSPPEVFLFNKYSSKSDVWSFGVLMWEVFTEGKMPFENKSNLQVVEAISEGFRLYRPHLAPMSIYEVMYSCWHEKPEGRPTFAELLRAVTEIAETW
Assay: biochemical
Assay type: binding
Details: kinase TXK; 1 µM; read-out: TXK (% of control at 1 µM)
Response body: numeric value in %, unit text excluded.

Query: Using the record for Nc1cc(C(F)(F)F)c(-c2cc(N3CCOCC3)nc(N3CCOCC3)n2)cn1 , report its remaining activity at 1 µM.
Result: 98

Query: Using the record for Cn1c(=O)n(-c2ccc(C(C)(C)C#N)cc2)c2c3cc(-c4cnc5ccccc5c4)ccc3ncc21 , report its remaining activity at 1 µM.
Result: 100

Query: Using the record for FC(F)c1nc2ccccc2n1-c1nc(N2CCOCC2)nc(N2CCOCC2)n1 , report its remaining activity at 1 µM.
Result: 83

Query: Using the record for COc1ncc(-c2ccc3nccc(-c4ccnnc4)c3c2)cc1NS(=O)(=O)c1ccc(F)cc1F , report its remaining activity at 1 µM.
Result: 82

* * *

Molecular target: panel of 442 kinases (Homo sapiens)
Construct: purchased Ambit Biosciences (scanMAXX KINOMEscan)
Assay: biochemical
Type: binding
Details: kinase JNK3; 1 µM; read-out: % of control at 1 µM
assayMetric: remaining activity at 1 µM (%)
Response body: numeric value in %, unit text excluded.

Query: Using the record for COc1ncc(-c2ccc3nccc(-c4ccnnc4)c3c2)cc1NS(=O)(=O)c1ccc(F)cc1F , report its remaining activity at 1 µM.
Result: 90

Query: Using the record for Cn1c(=O)n(-c2ccc(C(C)(C)C#N)cc2)c2c3cc(-c4cnc5ccccc5c4)ccc3ncc21 , report its remaining activity at 1 µM.
Result: 100

Query: Using the record for FC(F)c1nc2ccccc2n1-c1nc(N2CCOCC2)nc(N2CCOCC2)n1 , report its remaining activity at 1 µM.
Result: 100

Query: Using the record for Nc1cc(C(F)(F)F)c(-c2cc(N3CCOCC3)nc(N3CCOCC3)n2)cn1 , report its remaining activity at 1 µM.
Result: 100

* * *

Target: panel of 442 kinases (Homo sapiens, UniProt Q05397)
Construct: purchased Ambit Biosciences (scanMAXX KINOMEscan)
Sequence (Q05397 whole entry): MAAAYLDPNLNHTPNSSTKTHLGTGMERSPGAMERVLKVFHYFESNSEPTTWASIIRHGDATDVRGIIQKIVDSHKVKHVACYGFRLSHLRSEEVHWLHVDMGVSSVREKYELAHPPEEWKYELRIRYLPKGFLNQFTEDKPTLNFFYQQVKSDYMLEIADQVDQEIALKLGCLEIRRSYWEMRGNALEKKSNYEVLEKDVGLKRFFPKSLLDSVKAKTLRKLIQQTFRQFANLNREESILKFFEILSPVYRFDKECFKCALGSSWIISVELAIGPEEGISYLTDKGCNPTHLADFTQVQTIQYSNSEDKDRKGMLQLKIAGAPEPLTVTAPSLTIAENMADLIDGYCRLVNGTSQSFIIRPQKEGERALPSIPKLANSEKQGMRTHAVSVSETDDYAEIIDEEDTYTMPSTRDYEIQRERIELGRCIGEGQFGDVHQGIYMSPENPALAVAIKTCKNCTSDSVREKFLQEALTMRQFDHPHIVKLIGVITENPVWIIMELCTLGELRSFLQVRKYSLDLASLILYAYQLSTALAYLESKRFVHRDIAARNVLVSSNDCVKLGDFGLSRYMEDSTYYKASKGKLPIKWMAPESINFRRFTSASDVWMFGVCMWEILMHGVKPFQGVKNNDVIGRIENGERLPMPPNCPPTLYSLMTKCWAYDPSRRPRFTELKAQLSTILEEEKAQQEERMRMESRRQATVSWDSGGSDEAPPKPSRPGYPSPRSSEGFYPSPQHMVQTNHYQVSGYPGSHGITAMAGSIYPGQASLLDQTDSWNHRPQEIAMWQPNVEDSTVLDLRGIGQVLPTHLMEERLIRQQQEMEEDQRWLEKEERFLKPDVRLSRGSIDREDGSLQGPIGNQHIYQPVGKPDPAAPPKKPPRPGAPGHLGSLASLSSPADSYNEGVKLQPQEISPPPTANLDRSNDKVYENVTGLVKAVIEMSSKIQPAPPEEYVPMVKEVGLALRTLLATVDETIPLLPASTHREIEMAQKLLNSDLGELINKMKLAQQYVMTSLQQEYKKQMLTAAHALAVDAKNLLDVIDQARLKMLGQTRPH
Experiment: biochemical
Assay type: binding
Details: FAK; 1 µM; read-out: % of control at 1 µM
Field: remaining activity at 1 µM. Provide a value for each of the compounds that follow.
Response body: numeric value in %, unit text excluded.

Query: Using the record for Cn1c(=O)n(-c2ccc(C(C)(C)C#N)cc2)c2c3cc(-c4cnc5ccccc5c4)ccc3ncc21 , report its remaining activity at 1 µM.
Result: 90

Query: Using the record for FC(F)c1nc2ccccc2n1-c1nc(N2CCOCC2)nc(N2CCOCC2)n1 , report its remaining activity at 1 µM.
Result: 90

Query: Using the record for Nc1cc(C(F)(F)F)c(-c2cc(N3CCOCC3)nc(N3CCOCC3)n2)cn1 , report its remaining activity at 1 µM.
Result: 100

Query: Using the record for COc1ncc(-c2ccc3nccc(-c4ccnnc4)c3c2)cc1NS(=O)(=O)c1ccc(F)cc1F , report its remaining activity at 1 µM.
Result: 94

* * *

Target: panel of 442 kinases (Homo sapiens)
Construct: purchased Ambit Biosciences (scanMAXX KINOMEscan)
Sequence (P78356 1-416): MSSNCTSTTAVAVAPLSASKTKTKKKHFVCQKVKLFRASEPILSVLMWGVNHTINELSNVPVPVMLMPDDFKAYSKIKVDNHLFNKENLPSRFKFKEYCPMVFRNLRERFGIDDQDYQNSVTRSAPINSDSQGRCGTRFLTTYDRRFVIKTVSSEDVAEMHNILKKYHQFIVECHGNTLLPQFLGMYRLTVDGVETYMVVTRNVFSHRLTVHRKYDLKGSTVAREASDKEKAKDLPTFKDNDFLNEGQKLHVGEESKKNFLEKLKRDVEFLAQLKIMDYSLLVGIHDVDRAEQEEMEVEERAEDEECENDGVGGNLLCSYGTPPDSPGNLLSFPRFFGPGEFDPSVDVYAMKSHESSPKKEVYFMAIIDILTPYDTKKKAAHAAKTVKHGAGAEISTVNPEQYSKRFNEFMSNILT
Experiment: biochemical
Format: binding
Conditions: kinase PIP5K2B; 1 µM; read-out: % of control at 1 µM
assayMetric: remaining activity at 1 µM (%)
Response body: numeric value in %, unit text excluded.

Query: Using the record for FC(F)c1nc2ccccc2n1-c1nc(N2CCOCC2)nc(N2CCOCC2)n1 , report its remaining activity at 1 µM.
Result: 100

Query: Using the record for Nc1cc(C(F)(F)F)c(-c2cc(N3CCOCC3)nc(N3CCOCC3)n2)cn1 , report its remaining activity at 1 µM.
Result: 84

Query: Using the record for COc1ncc(-c2ccc3nccc(-c4ccnnc4)c3c2)cc1NS(=O)(=O)c1ccc(F)cc1F , report its remaining activity at 1 µM.
Result: 100

Query: Using the record for Cn1c(=O)n(-c2ccc(C(C)(C)C#N)cc2)c2c3cc(-c4cnc5ccccc5c4)ccc3ncc21 , report its remaining activity at 1 µM.
Result: 100

* * *

Target: panel of 442 kinases (Plasmodium falciparum, UniProt P62344)
Construct: purchased Ambit Biosciences (scanMAXX KINOMEscan)
Sequence (P62344 whole entry): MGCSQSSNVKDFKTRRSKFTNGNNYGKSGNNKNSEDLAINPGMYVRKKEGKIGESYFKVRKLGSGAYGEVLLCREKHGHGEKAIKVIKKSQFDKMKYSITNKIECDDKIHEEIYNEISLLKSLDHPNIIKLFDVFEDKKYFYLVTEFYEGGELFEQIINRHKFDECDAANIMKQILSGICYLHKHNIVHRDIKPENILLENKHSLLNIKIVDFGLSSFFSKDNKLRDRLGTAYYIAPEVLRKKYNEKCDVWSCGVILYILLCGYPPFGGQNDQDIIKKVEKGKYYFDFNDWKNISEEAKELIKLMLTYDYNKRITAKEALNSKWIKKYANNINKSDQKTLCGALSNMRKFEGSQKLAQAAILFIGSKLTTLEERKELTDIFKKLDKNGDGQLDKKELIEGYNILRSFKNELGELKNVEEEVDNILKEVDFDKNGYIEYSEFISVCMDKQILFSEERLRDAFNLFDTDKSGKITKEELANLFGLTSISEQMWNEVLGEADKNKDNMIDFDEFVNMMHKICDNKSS
Test: biochemical
Type: binding
Settings: kinase PFCDPK1(P.falciparum); 1 µM; read-out: % of control at 1 µM
Field: remaining activity at 1 µM. Provide a value for each of the compounds that follow.
Response body: numeric value in %, unit text excluded.

Query: Using the record for COc1ncc(-c2ccc3nccc(-c4ccnnc4)c3c2)cc1NS(=O)(=O)c1ccc(F)cc1F [Omipalisib] , report its remaining activity at 1 µM.
Result: 100

Query: Using the record for Nc1cc(C(F)(F)F)c(-c2cc(N3CCOCC3)nc(N3CCOCC3)n2)cn1 [Buparlisib] , report its remaining activity at 1 µM.
Result: 99

Query: Using the record for CS(=O)(=O)N1CCN(Cc2cc3nc(-c4cccc5[nH]ncc45)nc(N4CCOCC4)c3s2)CC1 [Pictilisib] , report its remaining activity at 1 µM.
Result: 100

Query: Using the record for FC(F)c1nc2ccccc2n1-c1nc(N2CCOCC2)nc(N2CCOCC2)n1 [ZSTK474] , report its remaining activity at 1 µM.
Result: 82

Query: Using the record for Cn1c(=O)n(-c2ccc(C(C)(C)C#N)cc2)c2c3cc(-c4cnc5ccccc5c4)ccc3ncc21 [Dactolisib] , report its remaining activity at 1 µM.
Result: 89

* * *

Field: remaining activity at 1 µM. Provide a value for each of the molecules that follow.
Target: panel of 442 kinases (Homo sapiens)
Construct: purchased Ambit Biosciences (scanMAXX KINOMEscan)
Experiment: biochemical
Assay type: binding
Conditions: kinase PDPK1; 1 µM; read-out: % of control at 1 µM

Query: Using the record for Cn1c(=O)n(-c2ccc(C(C)(C)C#N)cc2)c2c3cc(-c4cnc5ccccc5c4)ccc3ncc21 , report its remaining activity at 1 µM.
Result: 90%

Query: Using the record for Nc1cc(C(F)(F)F)c(-c2cc(N3CCOCC3)nc(N3CCOCC3)n2)cn1 , report its remaining activity at 1 µM.
Result: 89%

Query: Using the record for COc1ncc(-c2ccc3nccc(-c4ccnnc4)c3c2)cc1NS(=O)(=O)c1ccc(F)cc1F , report its remaining activity at 1 µM.
Result: 96%

Query: Using the record for FC(F)c1nc2ccccc2n1-c1nc(N2CCOCC2)nc(N2CCOCC2)n1 , report its remaining activity at 1 µM.
Result: 100%
